Origin of the recorded values: ChEMBL document CHEMBL4229522

This section presents molecules with their documented inhibition values.
# experimental.target: Lysyl oxidase homolog 2 (Homo sapiens) (UniProt Q9Y4K0)
# Sequence (Q9Y4K0 whole entry): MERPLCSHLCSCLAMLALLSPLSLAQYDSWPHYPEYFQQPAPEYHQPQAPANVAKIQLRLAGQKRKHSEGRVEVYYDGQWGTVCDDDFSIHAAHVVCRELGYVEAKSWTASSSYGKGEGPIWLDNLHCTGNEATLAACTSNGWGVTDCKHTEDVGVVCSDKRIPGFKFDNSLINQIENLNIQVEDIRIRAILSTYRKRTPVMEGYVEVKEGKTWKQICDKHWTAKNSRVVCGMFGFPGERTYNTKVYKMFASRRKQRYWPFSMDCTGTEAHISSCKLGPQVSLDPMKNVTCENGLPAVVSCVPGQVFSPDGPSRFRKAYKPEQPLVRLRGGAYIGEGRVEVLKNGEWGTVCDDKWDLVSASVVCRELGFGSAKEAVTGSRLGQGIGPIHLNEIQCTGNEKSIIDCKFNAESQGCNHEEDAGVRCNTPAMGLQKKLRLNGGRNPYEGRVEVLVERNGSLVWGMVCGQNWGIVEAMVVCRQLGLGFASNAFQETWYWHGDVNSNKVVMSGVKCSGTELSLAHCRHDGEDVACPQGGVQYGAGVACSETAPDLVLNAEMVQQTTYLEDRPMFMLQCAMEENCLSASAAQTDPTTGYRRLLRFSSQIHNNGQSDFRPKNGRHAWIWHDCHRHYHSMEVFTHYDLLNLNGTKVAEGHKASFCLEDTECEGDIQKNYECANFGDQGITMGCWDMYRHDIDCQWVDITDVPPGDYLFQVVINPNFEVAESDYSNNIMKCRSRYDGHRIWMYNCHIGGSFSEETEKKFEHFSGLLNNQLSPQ
# assay.details: Inhibition of recombinant LOXL2 (unknown origin) expressed in NS0 cells at 10 uM using diaminopentane as substrate preincubated for 30 mins followed by substrate addition measured after 1 hr by fluorimetric method relative to control

Cc1cc(-c2ccc3c(=O)n(-c4ccccc4)[nH]c3n2)c(C)o1; < 40%

Quick check: inhibition of CN(C)C(=S)SSC(=S)N(C)C ?
< 40%

Now the same for O=c1c2ccc(-c3cccs3)nc2[nH]n1-c1ccccc1
< 40%

* * *

This section presents compounds with their documented pIC50 values.
# experimental.target: Protein-lysine 6-oxidase (Homo sapiens, UniProt P28300)
# Sequence (P28300 whole entry): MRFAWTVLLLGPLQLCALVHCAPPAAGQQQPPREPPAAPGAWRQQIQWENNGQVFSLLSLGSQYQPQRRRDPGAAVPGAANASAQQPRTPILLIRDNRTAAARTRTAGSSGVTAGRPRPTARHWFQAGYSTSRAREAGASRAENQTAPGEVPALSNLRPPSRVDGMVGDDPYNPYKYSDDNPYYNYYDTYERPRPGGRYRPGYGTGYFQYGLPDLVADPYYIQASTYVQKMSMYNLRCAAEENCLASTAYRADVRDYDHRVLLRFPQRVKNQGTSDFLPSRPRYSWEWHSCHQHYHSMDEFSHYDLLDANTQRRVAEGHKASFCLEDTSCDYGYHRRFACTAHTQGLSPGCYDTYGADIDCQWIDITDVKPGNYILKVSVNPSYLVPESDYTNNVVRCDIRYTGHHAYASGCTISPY
# assay.details: Inhibition of recombinant human LOX expressed in HEK293 cells using diaminopentane as substrate preincubated for 30 mins followed by substrate addition measured after 1 hr by fluorimetric method
// field semantics: pIC50 = negative decimal log of concentration (mol/L)

# count of solved cases: 5
CN(C)C(=S)SSC(=S)N(C)C; 5.98
CC1=NN(c2ccccc2)C(=O)C1C (centres undefined); 5.59
Cc1cc(C)c2c(=O)n(-c3ccccc3)[nH]c2n1; 4.46
CC(C)(C)C1=NN(c2ccccc2)C(=O)C1; 4.12
CCN(CC)C(=S)SSC(=S)N(CC)CC; 6.49

Quick check: pIC50 of [O-][n+]1ccccc1S ?
4.48
